- MEASURED TARGET: Serine/threonine-protein kinase TAO2 (Homo sapiens) (UniProt Q9UL54)
- Sequence (Q9UL54 whole entry): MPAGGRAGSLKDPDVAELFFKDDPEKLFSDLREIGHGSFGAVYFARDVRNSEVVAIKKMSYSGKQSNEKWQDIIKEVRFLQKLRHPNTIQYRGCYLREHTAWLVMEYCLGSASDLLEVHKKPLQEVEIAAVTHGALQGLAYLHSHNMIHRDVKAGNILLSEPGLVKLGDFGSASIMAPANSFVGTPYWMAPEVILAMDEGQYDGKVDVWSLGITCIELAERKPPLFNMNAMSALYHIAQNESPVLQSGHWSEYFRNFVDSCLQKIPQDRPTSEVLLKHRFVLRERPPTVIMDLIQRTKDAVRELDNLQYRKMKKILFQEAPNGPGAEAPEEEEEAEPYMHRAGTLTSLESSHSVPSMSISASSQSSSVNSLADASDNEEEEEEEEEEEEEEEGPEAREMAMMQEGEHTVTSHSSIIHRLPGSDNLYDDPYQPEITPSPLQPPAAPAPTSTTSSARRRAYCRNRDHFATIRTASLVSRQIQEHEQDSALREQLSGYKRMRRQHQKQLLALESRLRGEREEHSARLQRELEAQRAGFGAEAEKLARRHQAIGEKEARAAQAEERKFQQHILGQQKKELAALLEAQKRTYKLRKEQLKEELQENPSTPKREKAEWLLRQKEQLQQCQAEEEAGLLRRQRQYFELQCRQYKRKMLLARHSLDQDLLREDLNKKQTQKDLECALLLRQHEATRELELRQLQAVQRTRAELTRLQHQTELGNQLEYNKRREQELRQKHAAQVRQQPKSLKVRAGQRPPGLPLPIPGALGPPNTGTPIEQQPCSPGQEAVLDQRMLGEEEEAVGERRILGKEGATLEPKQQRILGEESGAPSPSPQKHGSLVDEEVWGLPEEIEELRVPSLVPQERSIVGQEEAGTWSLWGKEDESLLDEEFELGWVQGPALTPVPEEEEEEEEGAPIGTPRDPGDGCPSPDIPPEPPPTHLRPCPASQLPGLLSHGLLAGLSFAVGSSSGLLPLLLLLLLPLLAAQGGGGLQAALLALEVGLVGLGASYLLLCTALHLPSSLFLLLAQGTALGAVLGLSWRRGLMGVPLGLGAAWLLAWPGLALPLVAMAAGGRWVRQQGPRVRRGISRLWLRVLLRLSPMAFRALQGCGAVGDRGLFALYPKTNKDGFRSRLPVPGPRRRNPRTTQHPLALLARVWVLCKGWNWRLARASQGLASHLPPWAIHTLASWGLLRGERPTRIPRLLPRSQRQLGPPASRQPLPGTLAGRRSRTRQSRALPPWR
- CONDITIONS: at 10 µM
Recorded residual activity, one value per entry.
Answer with a number only, understood to be in %.

>  <COMPOUND>
COc1cc(OC)c(/C=C2\C(=O)Nc3ccccc32)c(OC)c1

>  <VALUE>
81

$$$$

Request: Name the recorded residual activity for "COc1ccc2c(c[n+](C)c3c4cc5c(cc4ccc23)OCO5)c1OC" .
Response: 93

Request: Now try "O=C1c2ccccc2-c2nc3nnnn3nc21" .
Response: 103

Request: Similarly, C[S+]([O-])c1ccc(-c2nc(-c3ccc(F)cc3)c(-c3ccncc3)[nH]2)cc1 (configuration not stated) ?
Response: 79

Request: And what about the compound "CC(C)(C)c1cc(C=C(C#N)C#N)cc(Br)c1O" ?
Response: 103

Request: Proceed to "CC(C)[C@H](CO)Nc1nc(Nc2cccc(Cl)c2)c2ncn(C(C)C)c2n1"
Response: 49

Request: # iterate: "O=c1[nH]c2ccccc2n1C1CCN(Cc2ccc(-c3nc4cc5[nH]cnc5cc4nc3-c3ccccc3)cc2)CC1"
Response: 56

* * *

- MEASURED TARGET: Serine/threonine-protein kinase Sgk2 (Homo sapiens) (UniProt Q9HBY8)
- Sequence (Q9HBY8 whole entry): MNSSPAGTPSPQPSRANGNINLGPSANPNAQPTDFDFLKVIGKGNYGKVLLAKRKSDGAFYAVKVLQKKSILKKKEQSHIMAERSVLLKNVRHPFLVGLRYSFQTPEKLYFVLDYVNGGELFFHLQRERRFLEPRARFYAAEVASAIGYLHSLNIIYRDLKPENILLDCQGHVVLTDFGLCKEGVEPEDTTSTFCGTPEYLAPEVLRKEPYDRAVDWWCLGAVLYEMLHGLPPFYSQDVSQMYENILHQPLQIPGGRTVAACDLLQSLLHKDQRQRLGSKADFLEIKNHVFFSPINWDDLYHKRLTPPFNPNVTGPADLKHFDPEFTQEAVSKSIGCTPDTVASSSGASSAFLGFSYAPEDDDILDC
- CONDITIONS: at 1 µM
RECORDED ENDPOINT: residual activity (%)
Give just the number in %; leave the unit off.

// worked examples, residual activity included
>  <MOLECULE>
O=C1Nc2ccc3ncsc3c2/C1=C/c1c[nH]cn1

>  <residual activity, %>
12

$$$$
>  <MOLECULE>
COc1ccc2c(c[n+](C)c3c4cc5c(cc4ccc23)OCO5)c1OC

>  <residual activity, %>
130

$$$$
>  <MOLECULE>
COc1cc2ncnc(Nc3ccc(OCc4ccccc4)cc3)c2cc1OC

>  <residual activity, %>
89

$$$$
>  <MOLECULE>
CCn1cnc2c(Nc3cccc(Cl)c3)nc(N[C@@H]3CCCC[C@@H]3N)nc21

>  <residual activity, %>
97

$$$$

Request: Quick check: residual activity of "O=C1NC(=O)c2c1c1c3ccccc3n3c1c1c2c2ccccc2n1C1CCC3O1" ?
Response: 77

Request: Okay, and "c1cc(-c2cnn3cc(-c4ccc(OCCN5CCCCC5)cc4)cnc23)ccn1" ?
Response: 81

Request: Another molecule to look at: C[S+]([O-])c1ccc(-c2nc(-c3ccc(F)cc3)c(-c3ccncc3)[nH]2)cc1 (centres undefined)
Response: 114

Request: Input "O=[N+]([O-])/C=C/c1ccc2c(c1)OCO2"
Response: 89

Request: Same for "CC(C)(C)c1cc(C=C(C#N)C#N)cc(Br)c1O"
Response: 98

* * *

- MEASURED TARGET: Casein kinase II subunit alpha' (Homo sapiens) (UniProt P19784)
- Sequence (P19784 whole entry, looked up): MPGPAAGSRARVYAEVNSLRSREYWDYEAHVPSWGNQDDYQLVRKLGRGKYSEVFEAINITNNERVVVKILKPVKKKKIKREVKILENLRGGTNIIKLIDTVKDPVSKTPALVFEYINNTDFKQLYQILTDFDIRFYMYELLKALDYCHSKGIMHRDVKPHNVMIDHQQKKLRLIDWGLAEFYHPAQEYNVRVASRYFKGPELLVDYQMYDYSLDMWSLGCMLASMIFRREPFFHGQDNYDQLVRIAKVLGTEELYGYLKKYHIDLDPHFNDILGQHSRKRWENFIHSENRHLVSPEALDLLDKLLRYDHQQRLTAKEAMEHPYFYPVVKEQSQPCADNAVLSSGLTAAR
- CONDITIONS: at 10 µM
Please enter Criterion met where residual activity is greater than or equal to 90%, and Criterion not met where it is lower.

Please review the following examples before continuing.
>  <COMPOUND>
c1cc(-c2cnn3cc(-c4ccc(OCCN5CCCCC5)cc4)cnc23)ccn1

>  <ASSIGNED CATEGORY>
Criterion not met

$$$$
>  <COMPOUND>
C[S+]([O-])c1ccc(-c2nc(-c3ccc(F)cc3)c(-c3ccncc3)[nH]2)cc1 (configuration not stated)

>  <ASSIGNED CATEGORY>
Criterion met

$$$$
>  <COMPOUND>
O=C1c2ccccc2-c2nc3nnnn3nc21

>  <ASSIGNED CATEGORY>
Criterion not met

$$$$
>  <COMPOUND>
COc1ccc2c(c1)/C(=C/c1cnc[nH]1)C(=O)N2

>  <ASSIGNED CATEGORY>
Criterion not met

$$$$

// next entry
Request: Is residual activity at least 90%? Consider "O=[N+]([O-])/C=C/c1ccc2c(c1)OCO2"
Response: Criterion met

* * *

- MEASURED TARGET: Ephrin type-B receptor 3 (Homo sapiens) (UniProt P54753)
- Sequence (P54753 whole entry): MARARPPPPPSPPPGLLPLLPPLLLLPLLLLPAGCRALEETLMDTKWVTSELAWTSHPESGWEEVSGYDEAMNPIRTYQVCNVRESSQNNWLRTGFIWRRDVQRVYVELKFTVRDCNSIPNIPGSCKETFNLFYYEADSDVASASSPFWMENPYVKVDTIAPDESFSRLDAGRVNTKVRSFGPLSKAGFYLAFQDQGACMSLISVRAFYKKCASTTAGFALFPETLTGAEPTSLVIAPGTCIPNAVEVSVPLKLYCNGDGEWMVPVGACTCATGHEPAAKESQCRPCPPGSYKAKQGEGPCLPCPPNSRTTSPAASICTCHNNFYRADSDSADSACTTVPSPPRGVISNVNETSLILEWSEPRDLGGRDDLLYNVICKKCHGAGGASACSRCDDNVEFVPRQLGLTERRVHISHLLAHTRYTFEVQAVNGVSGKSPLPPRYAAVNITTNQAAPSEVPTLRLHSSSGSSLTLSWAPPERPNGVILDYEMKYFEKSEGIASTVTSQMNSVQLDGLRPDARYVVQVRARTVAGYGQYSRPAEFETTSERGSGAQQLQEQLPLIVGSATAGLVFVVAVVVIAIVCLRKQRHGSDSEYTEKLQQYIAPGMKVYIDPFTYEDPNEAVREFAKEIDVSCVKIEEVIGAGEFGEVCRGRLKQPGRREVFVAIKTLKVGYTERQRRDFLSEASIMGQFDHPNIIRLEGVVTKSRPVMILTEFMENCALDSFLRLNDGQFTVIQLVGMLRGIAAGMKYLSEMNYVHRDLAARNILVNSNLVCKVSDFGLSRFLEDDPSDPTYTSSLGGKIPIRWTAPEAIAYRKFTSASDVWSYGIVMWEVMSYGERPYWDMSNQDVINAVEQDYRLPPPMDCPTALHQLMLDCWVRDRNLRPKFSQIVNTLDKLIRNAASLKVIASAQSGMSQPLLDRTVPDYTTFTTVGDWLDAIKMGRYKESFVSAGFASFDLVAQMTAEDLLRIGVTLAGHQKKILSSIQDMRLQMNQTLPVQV
- CONDITIONS: at 10 µM
- Description: Millipore: Percentage of residual kinase activity of EPHB3 at 10uM relative to control. Control inhibitor: PP2 at 30.0uM. Buffer: 8 mM MOPS pH 7.0, 0.2 mM EDTA, 10 mM MnCl2
Recorded residual activity, one value per entry.
Express your answer in %, writing the number without its unit.

>  <SMILES TEXT>
O=C1Nc2ccc3ncsc3c2/C1=C/c1c[nH]cn1

>  <MEASURED TARGET>
Ephrin type-B receptor 3 (Homo sapiens) (UniProt P54753)

>  <RECORDED ENDPOINT>
residual activity

>  <VALUE>
131

$$$$
>  <SMILES TEXT>
O=c1[nH]c2ccccc2n1C1CCN(Cc2ccc(-c3nc4cc5[nH]cnc5cc4nc3-c3ccccc3)cc2)CC1

>  <MEASURED TARGET>
Ephrin type-B receptor 3 (Homo sapiens) (UniProt P54753)

>  <RECORDED ENDPOINT>
residual activity

>  <VALUE>
105

$$$$

Next:
Request: Which residual activity value is on record for "COC(=O)[C@@]1(O)C[C@H]2O[C@]1(C)n1c3ccccc3c3c4c(c5c6ccccc6n2c5c31)C(=O)NC4" ?
Response: 100

* * *

- MEASURED TARGET: Serine/threonine-protein kinase PAK 2 (Homo sapiens) (UniProt Q13177)
- Sequence (Q13177 whole entry): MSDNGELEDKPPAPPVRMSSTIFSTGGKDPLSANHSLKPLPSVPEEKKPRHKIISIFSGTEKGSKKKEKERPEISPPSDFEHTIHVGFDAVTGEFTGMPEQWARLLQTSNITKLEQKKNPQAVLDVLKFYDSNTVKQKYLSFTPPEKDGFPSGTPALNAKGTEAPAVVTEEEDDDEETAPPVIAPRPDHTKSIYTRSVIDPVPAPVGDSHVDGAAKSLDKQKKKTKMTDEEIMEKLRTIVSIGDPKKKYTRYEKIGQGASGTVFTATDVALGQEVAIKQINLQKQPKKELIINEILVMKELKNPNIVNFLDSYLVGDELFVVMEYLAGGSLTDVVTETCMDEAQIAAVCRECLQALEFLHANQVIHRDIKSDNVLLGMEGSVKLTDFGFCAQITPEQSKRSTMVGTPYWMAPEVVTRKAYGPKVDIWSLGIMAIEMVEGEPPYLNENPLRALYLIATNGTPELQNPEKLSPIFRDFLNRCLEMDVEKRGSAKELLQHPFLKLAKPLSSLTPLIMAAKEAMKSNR
- CONDITIONS: at 10 µM
# Lookup of reported residual activity keyed by entry
Write the number in % without appending the unit.

Consider the reported residual activity for these compounds:
>  <COMPOUND>
O=C1c2ccccc2-c2nc3nnnn3nc21

>  <residual activity, %>
75

$$$$
>  <COMPOUND>
C[S+]([O-])c1ccc(-c2nc(-c3ccc(F)cc3)c(-c3ccncc3)[nH]2)cc1 (stereo not drawn)

>  <residual activity, %>
100

$$$$

# input for lookup
Request: Can you share its residual activity? I mean this compound: "O=c1[nH]c2ccccc2n1C1CCN(Cc2ccc(-c3nc4cc5[nH]cnc5cc4nc3-c3ccccc3)cc2)CC1"
Response: 85

* * *

- MEASURED TARGET: SRSF protein kinase 3 (Homo sapiens);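 also: residual kinase activity expressed as percent of uninhibited control, measured in MOPS buffer at pH 7.0 containing EDTA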
- CONDITIONS: at 1 µM
- Description: Millipore: Percentage of residual kinase activity of SRPK3 at 1uM relative to control. Control inhibitor: Phosphoric acid* at 0.3uM. Buffer: 8 mM MOPS pH 7.0, 0.2 mM EDTA
residual activity for assorted compounds
Give the number; % is assumed, so skip it.

Example results:
>  <SMILES TEXT>
CC(C)[C@H](CO)Nc1nc(Nc2cccc(Cl)c2)c2ncn(C(C)C)c2n1

>  <residual activity [%]>
73

$$$$
>  <SMILES TEXT>
O=[N+]([O-])/C=C/c1ccc2c(c1)OCO2

>  <residual activity [%]>
120

$$$$

Request: What reported residual activity corresponds to "COc1cc(OC)c(/C=C2\C(=O)Nc3ccccc32)c(OC)c1" on SRSF protein kinase 3 (Homo sapiens)?
Response: 101

Request: Entry "CCn1cnc2c(Nc3cccc(Cl)c3)nc(N[C@@H]3CCCC[C@@H]3N)nc21" please
Response: 95

Request: Now give it for "COc1cc2ncnc(Nc3ccc(OCc4ccccc4)cc3)c2cc1OC" too.
Response: 122

* * *

- MEASURED TARGET: Vascular endothelial growth factor receptor 1 (Homo sapiens) (UniProt P17948)
- Sequence (P17948 whole entry): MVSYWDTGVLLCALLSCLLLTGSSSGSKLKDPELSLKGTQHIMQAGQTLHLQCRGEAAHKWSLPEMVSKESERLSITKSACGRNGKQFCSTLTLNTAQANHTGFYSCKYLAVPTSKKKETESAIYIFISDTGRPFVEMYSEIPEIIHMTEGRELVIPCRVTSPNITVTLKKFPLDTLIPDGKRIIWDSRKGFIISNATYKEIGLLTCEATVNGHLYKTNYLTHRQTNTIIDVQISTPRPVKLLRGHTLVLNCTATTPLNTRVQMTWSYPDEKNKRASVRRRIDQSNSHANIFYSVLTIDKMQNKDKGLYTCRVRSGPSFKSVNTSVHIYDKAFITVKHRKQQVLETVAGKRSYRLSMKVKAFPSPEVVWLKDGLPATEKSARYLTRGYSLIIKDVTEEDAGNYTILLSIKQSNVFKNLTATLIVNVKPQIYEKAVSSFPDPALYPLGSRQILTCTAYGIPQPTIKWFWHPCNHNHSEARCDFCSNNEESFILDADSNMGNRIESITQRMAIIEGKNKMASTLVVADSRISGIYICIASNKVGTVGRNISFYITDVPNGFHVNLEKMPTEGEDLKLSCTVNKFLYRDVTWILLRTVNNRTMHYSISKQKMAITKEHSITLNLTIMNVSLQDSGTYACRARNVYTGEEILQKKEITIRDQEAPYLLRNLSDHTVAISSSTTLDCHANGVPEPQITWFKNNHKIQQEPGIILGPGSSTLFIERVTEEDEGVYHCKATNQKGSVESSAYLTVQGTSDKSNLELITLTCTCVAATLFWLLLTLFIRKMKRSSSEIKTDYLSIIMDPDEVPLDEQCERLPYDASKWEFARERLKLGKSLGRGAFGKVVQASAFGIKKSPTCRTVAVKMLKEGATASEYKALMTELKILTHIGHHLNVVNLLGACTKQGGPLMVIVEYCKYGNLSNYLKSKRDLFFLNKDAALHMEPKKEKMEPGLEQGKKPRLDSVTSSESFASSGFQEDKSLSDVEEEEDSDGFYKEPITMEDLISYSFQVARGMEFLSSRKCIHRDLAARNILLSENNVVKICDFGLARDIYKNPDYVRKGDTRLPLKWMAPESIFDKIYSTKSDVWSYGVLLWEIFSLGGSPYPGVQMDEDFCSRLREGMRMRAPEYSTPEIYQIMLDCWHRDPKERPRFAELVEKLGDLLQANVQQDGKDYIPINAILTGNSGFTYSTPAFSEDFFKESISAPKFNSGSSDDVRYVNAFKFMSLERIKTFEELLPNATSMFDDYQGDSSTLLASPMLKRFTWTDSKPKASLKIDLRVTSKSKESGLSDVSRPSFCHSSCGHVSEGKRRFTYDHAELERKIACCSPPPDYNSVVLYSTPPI
- CONDITIONS: at 10 µM
RECORDED ENDPOINT: residual activity (%)
Please reply with the bare figure in % and do not write the unit itself.

Example compounds with recorded residual activity:
>  <COMPOUND>
COc1ccc2c(c[n+](C)c3c4cc5c(cc4ccc23)OCO5)c1OC

>  <READING UNIT>
%

>  <residual activity>
47

$$$$
>  <COMPOUND>
C[S+]([O-])c1ccc(-c2nc(-c3ccc(F)cc3)c(-c3ccncc3)[nH]2)cc1 (stereo not drawn)

>  <READING UNIT>
%

>  <residual activity>
39

$$$$
>  <COMPOUND>
N/C(=N\[N+](=O)[O-])N/N=C\c1ccc(-c2cccc([N+](=O)[O-])c2)o1

>  <READING UNIT>
%

>  <residual activity>
72

$$$$
>  <COMPOUND>
CC(C)[C@H](CO)Nc1nc(Nc2cccc(Cl)c2)c2ncn(C(C)C)c2n1

>  <READING UNIT>
%

>  <residual activity>
43

$$$$

Request: GET /values?readout=residual activity&item= "c1cc(-c2cnn3cc(-c4ccc(OCCN5CCCCC5)cc4)cnc23)ccn1"
Response: 0

Request: Could you do the same for "O=C1NC(=O)c2c1c1c3ccccc3n3c1c1c2c2ccccc2n1C1CCC3O1" , please?
Response: 4

Request: # repeat for "COC(=O)[C@@]1(O)C[C@H]2O[C@]1(C)n1c3ccccc3c3c4c(c5c6ccccc6n2c5c31)C(=O)NC4"
Response: 0

Request: Queued: "O=c1[nH]c2ccccc2n1C1CCN(Cc2ccc(-c3nc4cc5[nH]cnc5cc4nc3-c3ccccc3)cc2)CC1"
Response: 86

* * *

- MEASURED TARGET: Dual specificity mitogen-activated protein kinase kinase 1 (Homo sapiens)
- CONDITIONS: at 1 µM
- Description: Millipore: Percentage of residual kinase activity of MAP2K1 at 1uM relative to control. Control inhibitor: Phosphoric acid* at 0.3uM. Buffer: 50 mM Tris pH 7.5, 0.2 mM EGTA, 0.1% ?-mercaptoethanol, 0.01% Brij-35
RECORDED ENDPOINT: residual activity (%)
Your answer is read as %, so omit the unit and give the number.

>  <SMILES TEXT>
COc1ccc2c(c[n+](C)c3c4cc5c(cc4ccc23)OCO5)c1OC

>  <residual activity (%)>
125

$$$$
>  <SMILES TEXT>
O=[N+]([O-])/C=C/c1ccc2c(c1)OCO2

>  <residual activity (%)>
127

$$$$

Here is another compound to look at.
Request: Quick check: residual activity of "CCn1cnc2c(Nc3cccc(Cl)c3)nc(N[C@@H]3CCCC[C@@H]3N)nc21" ?
Response: 87

Where do the numbers come from? From ChEMBL document CHEMBL2218924.
